Recorded values, source patent US10174067B2.

Details: Day 11; G10-G16 groups; single IP 400 mg/kg; Mean±SEM
Reported Weight of mice, Day 11 values for the following compounds.
metric-name: Weight of mice, Day 11 (g)

* O=C(COc1nc(Cl)c(Cl)cc1Cl)OCC1OC(n2cc(-c3cn(Cc4ccccc4)nn3)c(NC(=O)OCc3ccc([N+](=O)[O-])cc3)nc2=O)C(F)(F)C1O (stereo not drawn) | 20.58
* CCCCOC(=O)Nc1nc(=O)n(C2OC(COC(=O)COc3nc(Cl)c(Cl)cc3Cl)C(O)C2(F)F)cc1I (stereo not drawn) | 20.68
* CCCCOC(=O)Nc1nc(=O)n(C2OC(COC(=O)COc3nc(Cl)c(Cl)cc3Cl)C(O)C2(F)F)cc1Br (stereo not drawn) | 21.32
